- target_or_system: Dual specificity tyrosine-phosphorylation-regulated kinase 1A (Homo sapiens, UniProt Q13627); further: in the data inactive means no Kd found up to 30 µM
Activity calls are given as the source filed them.
Thanks in advance; please answer with one of these: active, inactive

Completed entries (count: 6):
compound | category
C=CCn1c(=O)c2cnc(Nc3ccc(N4CCN(C)CC4)cc3)nc2n1-c1cccc(C(C)(C)O)n1 [ADAVOSERTIB] | inactive
O=C(NC[C@H](O)CO)c1ccncc1Nc1ccc(I)cc1F [PIMASERTIB] | inactive
Cc1c(NC(=O)OC[C@@H]2COCCN2)cn2ncnc(Nc3ccc4c(cnn4Cc4cccc(F)c4)c3)c12 [AC-480] | inactive
Cn1c(=O)c(F)c(Nc2ccc(I)cc2F)c2c(=O)n(C[C@@H](O)CO)cnc21 [TAK-733] | inactive
N#CCNC(=O)c1ccc(-c2ccnc(Nc3ccc(N4CCOCC4)cc3)n2)cc1 [MOMELOTINIB] | inactive
COc1cc(Nc2ncc(F)c(Nc3ccc4c(n3)N(COP(=O)(O)O)C(=O)C(C)(C)O4)n2)cc(OC)c1OC [FOSTAMATINIB] | inactive

QUERY: Look up the recorded call for CN1CCN(c2nc(C3=C(c4c[nH]c5ccccc45)C(=O)NC3=O)c3ccccc3n2)CC1 [SOTRASTAURIN] in this test.
RESULT: inactive

QUERY: Look up the recorded call for CCOc1ccn(-c2ccc(F)cc2)c(=O)c1C(=O)Nc1ccc(Oc2ccnc(N)c2Cl)c(F)c1 [BMS-777607] in this test.
RESULT: inactive

QUERY: Look up the recorded call for NC(=O)c1ccc(N(C(N)=O)c2c(F)cccc2F)nc1-c1ccc(F)cc1F [VX-702] in this test.
RESULT: inactive

QUERY: Look up the recorded call for O=C(Nc1ccc(OC(F)(F)F)cc1)c1sccc1NCc1ccnc2ccccc12 [OSI-930] in this test.
RESULT: inactive

QUERY: Look up the recorded call for CCc1cc2c(cc1N1CCC(N3CCOCC3)CC1)C(C)(C)c1[nH]c3cc(C#N)ccc3c1C2=O [ALECTINIB] in this test.
RESULT: inactive

QUERY: Look up the recorded call for COc1ccc(-c2ccc3ncc4c(c3c2)n(-c2ccc(N3CCNCC3)c(C(F)(F)F)c2)c(=O)n4C)cn1 [BGT-226 FREE BASE] in this test.
RESULT: active

QUERY: Look up the recorded call for O=C(NOC[C@H](O)CO)c1ccc(F)c(F)c1Nc1ccc(I)cc1F [MIRDAMETINIB] in this test.
RESULT: inactive

QUERY: Look up the recorded call for C=CC(=O)Nc1cccc(Nc2nc(Nc3ccc(N4CCN(C(C)=O)CC4)cc3OC)ncc2C(F)(F)F)c1 [ROCILETINIB] in this test.
RESULT: inactive

QUERY: Look up the recorded call for FC(F)(F)c1ccc(CNc2ccc(Cc3c[nH]c4ncc(Cl)cc34)cn2)cn1 [PEXIDARTINIB] in this test.
RESULT: inactive

QUERY: Look up the recorded call for COc1cc2ncnc(Nc3ccc(O)cc3)c2cc1OC [WHI-P131] in this test.
RESULT: inactive

QUERY: Look up the recorded call for CNC(=O)c1cc(COc2nnc(Nc3ccc(Cl)cc3)c3ccoc23)ccn1 [TELATINIB] in this test.
RESULT: inactive

QUERY: Look up the recorded call for C=CCN(/C=C1/C(=O)O[C@H](COC)[C@@]2(C)C1=C(O)C(=O)C1=C2[C@H](OC(C)=O)C[C@]2(C)C(=O)CC[C@@H]12)CC=C [SONOLISIB] in this test.
RESULT: inactive

QUERY: Look up the recorded call for COc1cccc(Nc2ncnn3ccc(CN4CC[C@@H](N)[C@H](O)C4)c23)c1 [BMS-690514] in this test.
RESULT: active

QUERY: Look up the recorded call for CNC(=O)c1cccc(-c2ccc3c(N4CCOC[C@@H]4C)nc(N4CCOC[C@@H]4C)nc3n2)c1 [VISTUSERTIB] in this test.
RESULT: inactive

QUERY: Look up the recorded call for COc1cc2ncnc3c2cc1OCCCCCN(C)Cc1ccc(Br)cc1N3 [JNJ-26483327] in this test.
RESULT: inactive
